System Name: T1, Bdf1 bromodomain 2 (GST-tagged, WT) (Saccharomyces cerevisiae (strain ATCC …, UniProt P35817))
T1 chain: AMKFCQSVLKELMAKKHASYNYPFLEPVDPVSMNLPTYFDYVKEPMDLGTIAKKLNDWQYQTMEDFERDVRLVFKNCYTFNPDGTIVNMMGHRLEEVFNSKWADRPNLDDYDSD
Method Notes: histone peptide array probed with recombinant GST-bromodomain, signal normalised to myc peptide control
Non-standard residues stand in square brackets, D forms with d. No end group written: not given here. Arg(Me2a) = CN(C)C(=N)NCCC[C@H](N)C(=O)O; Lys(Me3) = C[N+](C)(C)CCCC[C@H](N)C(=O)O; Arg(Me2s) = CN=C(NC)NCCC[C@H](N)C(=O)O; pT = C[C@@H](OP(=O)(O)O)[C@H](N)C(=O)O; pS = N[C@@H](COP(=O)(O)O)C(=O)O; Lys(Me) = CNCCCC[C@H](N)C(=O)O
Endpoint Label: binding score

Quick check: binding score of SGRGKGGKGLGKGGAKRHR (S G Rme2a G K G G Kac G L G K G G A K R H R) ?
0.0345

Same lookup for SGRGKGGKGLGKGGAKRHR (S G R G Kac G G Kac G L G Kac G G A K R H R) , please.
0.496

Same for ARTKQTARKSTGGKAPRKQ (A R T Kme2 Q T A Rme2s Kme3 S T G G K A P R K Q)
0

Now consider PRKQLATKAA[Arg(Me2s)][Lys(Me3)][pS]APATGG .
0

Thanks! And A[Arg(Me2a)]TKQTARKSTGGKAPRKQ ?
0.00462

ARTKQTARKSTGGKAPRKQ (A R T K Q T A R Kac S pT G G K A P R K Q) ?
0

[P] ARTKQTARKSTGGKAPRKQ (A Rme2a T Kme2 Q T A Rme2a Kme1 S T G G K A P R K Q)
[Q] ARTKQTARKSTGGKAPRKQ (A R T K Q T A Rme2s Kme3 pS T G G K A P R K Q)
[R] SGRGKGGKGLGKGGAKRHR (S G R G K G G K G L G Kac G G A K R H R)
[S] PDPAKSAPAPKKGSKKAVT (not fully specified) [H2B 1-19]
[T] A[Arg(Me2a)]T[Lys(Me3)]QTA[Arg(Me2a)][Lys(Me3)]STGGKAPRKQ
Given 5 binders, produce a descending ranking by binding score. Lab note: final answer is the ordered label list.
R, T, S, Q, P
(R: 0.0271, T: 0.00384, S: 0.00266, Q: 0.00148, P: 0)

[a] RKSAPATGGVKKPHRYRPG (R K S A P A T G G V Kme2 K P H R Y R P G) [H3 26-45]
[b] AR[pT]KQTARKSTGGKAPRKQ
[c] SGRGKGGKGLGKGGAKRHR (S G R G K G G Kac G L G K G G A Kac R H R)
Put these in order: smallest binding score first, largest last. Labels, ranked as asked.
a, b, c

[I] ARTKQTA[Arg(Me2a)][Lys(Me)][pS][pT]GGKAPRKQ
[II] ARTKQTARKSTGGKAPRKQ (A R T Kac Q T A Rme2s Kme3 S T G G K A P R K Q)
Param pair: I , II . Output: the one whose binding score is numerically greater. // output: label of the selected item
II
(II: 0.00482, I: 0)
